Origin of the recorded values: ChEMBL document CHEMBL5316338

- Tested on: Mus musculus
- test-description: Antidiabetic activity against over-night fasted C57BL/ks db/db mouse assessed as suppression of increased blood glucose concentration at 1 uM/kg, sc pretreated with compound for 4 weeks followed by insulin stimulation and measured for 90 mins by insulin tolerance test
- Assay type: functional, organism-based
- measurement-context: time 40410.0 min
The source made the active and inactive calls. The calls are words filed in the database; no cut-off is given here. Square brackets hold non-standard residues; d marks the D form. Peptide text beside a SMILES is read from it. * marks the point of attachment. ξ: configuration not given here. C18 diacid = O=C(O)CCCCCCCCCCCCCCCCC(=O)*; Stearoyl = CCCCCCCCCCCCCCCCCC(=O)*; ξR = N=C(N)NCCCC(N)C(=O)O
property-label: Activity

>>> reading("CCCCCCCCCCCCCCCCCC(=O)N[C@H](C(=O)N[C@@H](C)C(=O)N[C@@H](CCC(N)=O)C(=O)N[C@@H](CCC(=O)O)C(=O)N[C@@H](CC(C)C)C(=O)N[C@@H](CCCNC(=N)N)C(=O)NC(CCCNC(=N)N)C(=O)N[C@H](C(=O)NCC(=O)N[C@@H](CC(=O)O)C(=O)N[C@@H](CCC(=O)O)C(=O)N[C@@H](Cc1ccccc1)C(=O)O)[C@@H](C)CC)[C@@H](C)CC (some centres not stated) (Stearoyl-IAQELR[ξR]IGDEF-OH)")
"Active"
>>> reading("CC[C@H](C)[C@H](NC(=O)CCCCCCCCCCCCCCCCC(=O)O)C(=O)N[C@@H](C)C(=O)N[C@@H](CCC(N)=O)C(=O)N[C@@H](CCC(=O)O)C(=O)N[C@@H](CC(C)C)C(=O)N[C@@H](CCCNC(=N)N)C(=O)NC(CCCNC(=N)N)C(=O)N[C@H](C(=O)NCC(=O)N[C@@H](CC(=O)O)C(=O)N[C@@H](CCC(=O)O)C(=O)N[C@@H](Cc1ccccc1)C(=O)O)[C@@H](C)CC (some centres not stated) ({C18 diacid}-IAQELR[ξR]IGDEF-OH)")
"Active"
